# System under test: muscarinic cholinergic receptor
# Method description: [3H] Quinuclidinyl Benzilate (QNB) Binding Assay, cerebral cortex
# Experimental context: 3H-QNB 0.25 nM, rat cerebral cortex, 25° C., 120 minutes, pH 7.4; read-out: Ki, ^3 H-QNB (ctx)
Readings of Ki for the listed molecules
The reply should contain only the number, in µM.

>>> value("CN1C[C@@H]2C[C@H]1CN2c1ccc([N+](=O)[O-])s1 [Example 29]")
13.2
>>> value("Cc1nsc(N2C[C@H]3C[C@@H]2CN3)n1 [Example 14]")
24.7
>>> value("CN1C[C@@H]2C[C@H]1CN2c1ccccc1[N+](=O)[O-] [Example 30]")
1.6
>>> value("COc1cncc(N2C[C@@H]3C[C@H]2CN3C)n1 [Example 32]")
0.4
>>> value("CN1C[C@@H]2C[C@H]1CN2c1nccnc1Cl [Example 23]")
2.3

We now examine a further molecule.
State its Ki on muscarinic cholinergic receptor: Cc1nccnc1N1C[C@@H]2C[C@H]1CN2C [Example 35]
6.3
